Data origin, for the record: PubChem BioAssay (NCI)

test system: ACHN renal; assay: NCI tumour cell line growth inhibition, 48 h
Reported TGI is given for each of the following compounds.

QUERY: Read off the recorded TGI for O=C(OCc1nc2nc(Cl)nc(N3CCOCC3)c2[nH]1)n1ccnc1
RESULT: 2.32 µM

QUERY: # return recorded TGI for entry Clc1ccc(CNc2ccc3nc(CCC4CCCCC4)[nH]c3c2)cc1
RESULT: 11.2 µM

QUERY: Return TGI for the following compound: Nc1nc(Cl)nc(NCc2ccccc2)n1
RESULT: > 100 µM

* * *

tested on: HOP-62 NSCLC; assay: NCI tumour cell line growth inhibition, 48 h
Reported TGI values for the following compounds.

compound=OC/C=C/[C@H](OCc1ccccc1)[C@H](/C=C/CO)OCc1ccccc1 value_observed="> 100 µM"
compound=Cn1c(=O)c2ccccc2c2ccccc21 value_observed="> 100 µM"

QUERY: // output TGI; input COC(=O)C1(C(=O)OC)CC(=O)c2c(OC(=O)c3cccc(OC)c3C#N)ccc(OC(=O)c3cccc(OC)c3C#N)c2C1 ; system HOP-62 NSCLC
RESULT: > 100 µM

QUERY: Answer with TGI of Cc1cc2nc(N3C(=O)/C(=C/c4ccc(Oc5ccccc5)cc4)N=C3c3ccccc3)sc2cc1C measured for HOP-62 NSCLC.
RESULT: > 100 µM

QUERY: Lab note: record TGI of O=c1oc2ccc(Br)cc2c(=O)n1-c1ccc(Br)cc1F tested on HOP-62 NSCLC.
RESULT: 4.79 µM

QUERY: System HOP-62 NSCLC. Read-out TGI. Item CSC(SC)=C(C#N)C(=O)Nc1ccc(C)cc1 . Report value.
RESULT: > 100 µM

QUERY: Please tell me the measured TGI for CC(=O)CC(=O)Nc1ccccc1[N+](=O)[O-] ; system: HOP-62 NSCLC.
RESULT: > 100 µM

QUERY: Report measured TGI on HOP-62 NSCLC; entry: CCN1C(C)(C)CC(Oc2ccc(C(=O)Nc3ccc(NC(=O)Nc4cc(C(C)(C)C)on4)cc3)nc2)CC1(C)C
RESULT: 3.87 µM

QUERY: Quote TGI with test system HOP-62 NSCLC for O=c1[nH]cnc2c1ccn2C1OC(CO)C(O)C1O (stereo unspecified)
RESULT: > 100 µM

QUERY: Jot down TGI (HOP-62 NSCLC) of Cc1cc(Nc2nc(-c3ccc(F)cc3)nc3ccccc23)n[nH]1 .
RESULT: 20.3 µM

QUERY: Output reported TGI of the compound CN=c1ss/c(=N\C(=S)N(C)C)n1-c1ccccc1 on HOP-62 NSCLC.
RESULT: > 100 µM
